System: Candida albicans
Measurement description: Compound was tested for rate of hydrolysis (percent hydrolyzed per 10 min) by cell extract from Candida albicans H-317.
Assay type: functional
Entries and their Hydrolysis values follow.
Reply: number alone, nothing else.

Some solved entries appear below for comparison.
- Compound: "CCCCCCCC(=O)NCCCC[C@H](NC(=O)[C@@H](N)CCCCNC(=O)CCCCCCC)C(=O)N[C@H](C(=O)O)[C@H]1OC(n2ccc(=O)[nH]c2=O)[C@H](O)[C@@H]1O (stereo not given in full)"
  Test system: "Candida albicans"
  Hydrolysis: 0
- Compound: "CCCCCCCC(=O)NCCCC[C@H](NC(=O)[C@@H](N)CC(C)C)C(=O)N[C@H](C(=O)O)[C@H]1OC(n2ccc(=O)[nH]c2=O)[C@H](O)[C@@H]1O (stereo not given in full)"
  Test system: "Candida albicans"
  Hydrolysis: 0
- Compound: "CCCCCCCC(=O)NCCCC[C@H](N)C(=O)N[C@H](C(=O)O)[C@H]1O[C@@H](n2ccc(=O)[nH]c2=O)[C@H](O)[C@@H]1O"
  Test system: "Candida albicans"
  Hydrolysis: 0
- Compound: "C[C@@H]([C@H](N)C(=O)N[C@H](C(=O)O)[C@H]1O[C@@H](n2ccc(=O)[nH]c2=O)[C@H](O)[C@@H]1O)[C@H](O)c1ccc(O)cn1"
  Test system: "Candida albicans"
  Hydrolysis: 0

Q: What value of Hydrolysis has been recorded for this entry: CC(C)C[C@H](N)C(=O)N[C@H](C(=O)N[C@H](C(=O)O)[C@H]1OC(n2cc(CO)c(=O)[nH]c2=O)[C@H](O)[C@@H]1O)[C@H](O)[C@@H](O)COC(N)=O (stereo not given in full)
A: 5

---

Entries annotated with measured MIC
System: Candida albicans
Measurement description: Compound was tested for its lowest concentration at which growth of 124N5 strain of Candida albicans was clearly inhibited.
Type: functional
Your answer should be a plain number; it is taken to be in µg/mL.

- Structure string: "COC(=O)/C=C/C(=O)NC[C@H](N)C(=O)N[C@H](C(=O)O)[C@H]1O[C@@H](n2ccc(=O)[nH]c2=O)[C@H](O)[C@@H]1O"
  Readout unit: "µg/mL"
  Test result: 1000

Pending compound:
Q: Test system Candida albicans; read-out MIC; what value for C[C@@H]([C@H](N)C(=O)N[C@H](C(=O)O)[C@H]1O[C@@H](n2cc(C=O)nc2O)[C@H](O)[C@@H]1O)[C@H](O)c1ccc(O)cn1 ?
A: 333

---

Tested on: Candida albicans
Measurement description: Compound was tested for rate of hydrolysis (percent hydrolyzed per 10 min) by cell extract from Candida albicans H-317.
Format: functional
# key: entry, value: Hydrolysis

Below: 5 compounds and their reported Hydrolysis.
- Compound: "CC(C)C[C@H](N)C(=O)N[C@H](C(=O)N[C@H](C(=O)O)[C@H]1OC(n2cc(C=O)nc2O)[C@H](O)[C@@H]1O)[C@H](C)[C@H](O)c1ccc(O)cn1 (stereo partly specified)"
  Test result: 33
- Compound: "N[C@@H](Cc1cccc(F)c1)C(=O)N[C@H](C(=O)O)[C@H]1O[C@@H](n2ccc(=O)[nH]c2=O)[C@H](O)[C@@H]1O"
  Test result: 33
- Compound: "CC(C)C[C@H](N)C(=O)N[C@H](C(=O)N[C@H](C(=O)O)[C@H]1OC(n2ccc(=O)[nH]c2=O)[C@H](O)[C@@H]1O)[C@H](C)[C@H](O)c1ccc(O)cn1 (stereo partly specified)"
  Test result: 33
- Compound: "C[C@@H]([C@H](N)C(=O)N[C@H](C(=O)O)[C@H]1O[C@@H](n2cc(C=O)nc2O)[C@H](O)[C@@H]1O)[C@H](O)c1ccc(O)cn1"
  Test result: 0
- Compound: "COC(=O)/C=C/C(=O)NC[C@H](N)C(=O)N[C@H](C(=O)O)[C@H]1O[C@@H](n2ccc(=O)[nH]c2=O)[C@H](O)[C@@H]1O"
  Test result: 0

Q: Requested field: Hydrolysis. Item: NCCOC[C@H](N)C(=O)N[C@H](C(=O)O)[C@H]1O[C@@H](n2ccc(=O)[nH]c2=O)[C@H](O)[C@@H]1O
A: 0

---

Items are presented alongside their recorded ID50.
Test system: Chitin synthase 1 (Candida albicans)
Measurement description: Compound was tested for its ability to inhibit chitin synthetase using Candida albicans strain H-317.
Assay type: functional
Give the quantity in mg/L, number only.

- Compound: "CCCCCCCC(=O)NCCCC[C@H](NC(=O)[C@@H](N)CCCCNC(=O)CCCCCCC)C(=O)N[C@H](C(=O)O)[C@H]1OC(n2ccc(=O)[nH]c2=O)[C@H](O)[C@@H]1O (stereo partly drawn)"
  Readout unit: "mg/L"
  ID50: 80
- Compound: "COC(=O)/C=C/C(=O)NC[C@H](N)C(=O)N[C@H](C(=O)O)[C@H]1O[C@@H](n2ccc(=O)[nH]c2=O)[C@H](O)[C@@H]1O"
  Readout unit: "mg/L"
  ID50: 100

Q: Fill in the blank: the reported ID50 of CC(C)C[C@H](N)C(=O)N[C@H](C(=O)N[C@H](C(=O)O)[C@H]1OC(n2cc(CO)c(=O)[nH]c2=O)[C@H](O)[C@@H]1O)[C@H](O)[C@@H](O)COC(N)=O (stereo partly drawn) is ____.
A: 20

---

Test system: UniProtKB P23316
Sequence (P23316 whole entry, looked up): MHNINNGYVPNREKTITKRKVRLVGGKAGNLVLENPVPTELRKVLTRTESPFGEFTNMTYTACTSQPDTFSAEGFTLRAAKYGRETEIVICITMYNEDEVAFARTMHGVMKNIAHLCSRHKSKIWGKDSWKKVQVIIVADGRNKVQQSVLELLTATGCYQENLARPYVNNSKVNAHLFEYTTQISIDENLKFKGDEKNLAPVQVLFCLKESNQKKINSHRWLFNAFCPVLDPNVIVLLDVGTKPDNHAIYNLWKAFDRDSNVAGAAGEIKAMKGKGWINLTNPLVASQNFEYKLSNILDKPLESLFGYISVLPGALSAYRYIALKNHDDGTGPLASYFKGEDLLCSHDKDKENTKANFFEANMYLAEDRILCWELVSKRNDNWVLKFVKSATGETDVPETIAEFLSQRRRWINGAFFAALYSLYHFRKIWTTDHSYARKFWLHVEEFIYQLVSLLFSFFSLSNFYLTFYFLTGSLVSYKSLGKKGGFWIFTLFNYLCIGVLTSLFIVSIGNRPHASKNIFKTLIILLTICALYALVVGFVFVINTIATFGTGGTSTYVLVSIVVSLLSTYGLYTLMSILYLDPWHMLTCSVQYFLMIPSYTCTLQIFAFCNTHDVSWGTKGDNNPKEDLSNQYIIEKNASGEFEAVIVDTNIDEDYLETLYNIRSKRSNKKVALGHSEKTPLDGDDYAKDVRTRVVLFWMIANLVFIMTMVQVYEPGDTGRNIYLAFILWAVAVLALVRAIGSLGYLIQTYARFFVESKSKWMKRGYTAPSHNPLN
Measurement description: Compound was tested for its ability to inhibit chitin synthetase using Candida albicans strain H-317.
Format: functional
Metric: ID50 (µg/mL)
Quick note: give the figure in µg/mL, leave out the unit.

// below: answered molecules
- Molecule: "CCCCCCCC(=O)NCCCC[C@H](N)C(=O)N[C@H](C(=O)O)[C@H]1O[C@@H](n2ccc(=O)[nH]c2=O)[C@H](O)[C@@H]1O"
  Test system: "UniProtKB P23316"
  Readout unit: "µg/mL"
  ID50: 0.5
- Molecule: "C[C@@H]([C@H](N)C(=O)N[C@H](C(=O)O)[C@H]1O[C@@H](n2cc(C=O)nc2O)[C@H](O)[C@@H]1O)[C@H](O)c1ccc(O)cn1"
  Test system: "UniProtKB P23316"
  Readout unit: "µg/mL"
  ID50: 0.1

Now for another entry.
Q: Returns the measured ID50 for the input molecule. Input: CCCCCCCC(=O)NCCCC[C@H](NC(=O)[C@@H](N)CC(C)C)C(=O)N[C@H](C(=O)O)[C@H]1OC(n2ccc(=O)[nH]c2=O)[C@H](O)[C@@H]1O (stereo partly drawn)
A: 50

---

Tested on: Candida albicans
Measurement description: Compound was tested for percent inhibition of transport of (Met)3 into Candida albicans H-317.
Design: concentration or dose not given beside the values
Tick 1.0 if Transport inhibition is 30% or greater. Tick 0.0 if Transport inhibition is less than 30%.

Example entries and their recorded answers appear below.
- Compound: "CCCCCCCC(=O)NCCCC[C@H](NC(=O)[C@@H](N)CC(C)C)C(=O)N[C@H](C(=O)O)[C@H]1OC(n2ccc(=O)[nH]c2=O)[C@H](O)[C@@H]1O (stereo not given in full)"
  Group: 1.0
- Compound: "CC(C)C[C@H](N)C(=O)N[C@H](C(=O)N[C@H](C(=O)O)[C@H]1OC(n2cc(C=O)nc2O)[C@H](O)[C@@H]1O)[C@H](C)[C@H](O)c1ccc(O)cn1 (stereo not given in full)"
  Group: 0.0

Q: Confirm if Transport inhibition reported for the compound CCCCCCCC(=O)NCCCC[C@H](NC(=O)[C@@H](N)CCCCNC(=O)CCCCCCC)C(=O)N[C@H](C(=O)O)[C@H]1OC(n2ccc(=O)[nH]c2=O)[C@H](O)[C@@H]1O (stereo not given in full) is 30% or above.
A: 1.0

Q: In plain terms: is recorded Transport inhibition at least 30% for COC(=O)/C=C/C(=O)NC[C@H](N)C(=O)N[C@H](C(=O)O)[C@H]1O[C@@H](n2ccc(=O)[nH]c2=O)[C@H](O)[C@@H]1O ?
A: 0.0

---

Test system: Candida albicans
Measurement description: Compound was tested for its lowest concentration at which growth of 124N5 strain of Candida albicans was clearly inhibited.
Assay type: functional
Metric: MIC

- Compound: "NC(Cc1cccc(F)c1)C(=O)O (racemic)"
  Test system: "Candida albicans"
  MIC: "> 1000 µg/mL"
- Compound: "N[C@@H](Cc1cccc(F)c1)C(=O)N[C@H](C(=O)O)[C@H]1O[C@@H](n2ccc(=O)[nH]c2=O)[C@H](O)[C@@H]1O"
  Test system: "Candida albicans"
  MIC: "> 1000 µg/mL"
- Compound: "CC(C)C[C@H](N)C(=O)N[C@H](C(=O)N[C@H](C(=O)O)[C@H]1OC(n2ccc(=O)[nH]c2=O)[C@H](O)[C@@H]1O)[C@H](C)[C@H](O)c1ccc(O)cn1 (stereo partly specified)"
  Test system: "Candida albicans"
  MIC: "> 666 µg/mL"
- Compound: "CCCCCCCC(=O)NCCCC[C@H](NC(=O)[C@@H](N)CC(C)C)C(=O)N[C@H](C(=O)O)[C@H]1OC(n2ccc(=O)[nH]c2=O)[C@H](O)[C@@H]1O (stereo partly specified)"
  Test system: "Candida albicans"
  MIC: "> 666 µg/mL"
- Compound: "CCCCCCCC(=O)NCCCC[C@H](NC(=O)[C@@H](N)CCCCNC(=O)CCCCCCC)C(=O)N[C@H](C(=O)O)[C@H]1OC(n2ccc(=O)[nH]c2=O)[C@H](O)[C@@H]1O (stereo partly specified)"
  Test system: "Candida albicans"
  MIC: "> 666 µg/mL"

Now for a further compound.
Q: Sample NCCOC[C@H](N)C(=O)N[C@H](C(=O)O)[C@H]1O[C@@H](n2ccc(=O)[nH]c2=O)[C@H](O)[C@@H]1O — what was its MIC?
A: > 1000 µg/mL
